These measurements were taken from paper PMC7327145.

Format: in vivo, rat
EXPERIMENTAL_CONTEXT: rat, plasma, iv, 10 mg/kg, AUC, SIDM rats (n=7)
QUANTITY_MEASURED: AUC (ng·h/mL)
Give the value in ng·h/mL but do not write ng·h/mL after it.

response.value for C[C@@H]1CCN(C(=O)CC#N)C[C@@H]1N(C)c1ncnc2[nH]ccc12 (field: AUC) = 2830

###

Format: in vivo, rat
EXPERIMENTAL_CONTEXT: rat, plasma, po, 20 mg/kg, AUC, oral 20 mg/kg, SIDM rats (n=7)
QUANTITY_MEASURED: AUC

response.value for C[C@@H]1CCN(C(=O)CC#N)C[C@@H]1N(C)c1ncnc2[nH]ccc12 (field: AUC) = 1350 ng·h/mL
